B1: library; numbered along this chain (parent)
chain: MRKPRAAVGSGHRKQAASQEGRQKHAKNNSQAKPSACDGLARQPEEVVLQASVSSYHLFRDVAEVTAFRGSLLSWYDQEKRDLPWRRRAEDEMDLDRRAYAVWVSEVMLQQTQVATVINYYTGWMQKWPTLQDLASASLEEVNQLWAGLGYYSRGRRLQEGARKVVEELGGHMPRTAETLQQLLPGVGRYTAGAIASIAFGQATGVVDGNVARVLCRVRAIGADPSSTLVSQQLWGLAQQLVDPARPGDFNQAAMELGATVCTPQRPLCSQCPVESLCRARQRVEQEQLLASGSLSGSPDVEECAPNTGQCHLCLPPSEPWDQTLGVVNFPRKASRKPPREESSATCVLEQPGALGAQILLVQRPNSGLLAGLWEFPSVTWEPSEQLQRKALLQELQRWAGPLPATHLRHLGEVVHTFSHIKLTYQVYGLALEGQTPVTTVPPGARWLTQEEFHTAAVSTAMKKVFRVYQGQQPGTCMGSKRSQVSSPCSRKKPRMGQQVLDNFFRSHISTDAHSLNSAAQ

Variants of: B1
Assay: 8OG:A repair function score (normalized; synonymous = 0, nonsense = -1) (normalized log-likelihood score); higher = more repair activity (WT-like);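 note: cells sorted at 72 h after reporter transfection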
Conditions: with 8OG:A DNA repair reporter (GFP) in HEK-293 MUTYH KO cells
Returns the class for an entry based on its 8OG:A repair function score. Class ranges: interval 1: < -0.3; interval 2: ≥ -0.3 and < -0.05; interval 3: ≥ -0.05

Y428R = interval 1
Q282R = interval 3
M108R = interval 1
Q484S = interval 3
P352I = interval 1

--- query ---
For this variant, which bin applies? P442K
interval 2

Values compiled from the supplement of paper PMC11908140.
